- system: GST-Co-NF-kB (Capsaspora owczarzaki, UniProt F1ARL5 200-546)
- Sequence: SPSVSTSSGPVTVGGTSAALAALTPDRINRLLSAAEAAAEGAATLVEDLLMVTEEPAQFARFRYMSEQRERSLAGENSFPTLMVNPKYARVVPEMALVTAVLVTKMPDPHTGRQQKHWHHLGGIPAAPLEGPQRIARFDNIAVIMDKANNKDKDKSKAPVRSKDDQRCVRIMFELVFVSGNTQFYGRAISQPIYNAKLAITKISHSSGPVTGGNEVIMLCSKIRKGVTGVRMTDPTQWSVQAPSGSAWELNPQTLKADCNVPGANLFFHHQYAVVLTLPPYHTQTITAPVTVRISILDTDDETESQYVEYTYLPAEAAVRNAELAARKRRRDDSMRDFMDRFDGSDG
- test.name: protein-binding microarray (PBM); PBM: ~300 nM protein, 6 mM HEPES pH 7.8, 80 mM KCl, 0.5 mM EDTA, 0.5 mM EGTA, 6% glycerol, 35 ng/ul poly-dIdC, 1% milk, 1 h, room temperature; Ap Aiptasia and Nv Nematostella (sea anemones) / Co Capsaspora / Aq Amphimedon (sponge) / Dm Drosophila / Hu human; RHD is the Rel homology domain; high values mean tight binding
- settings: dsDNA, one strand shown
# label = bin(measured binding signal), where bins are low (below 3 z-score), middle (3 z-score to below 5 z-score), high (5 z-score or more)

| macromolecule.sequence | assigned.label |
| --- | --- |
| CCGATTAACATCACATGTTTCCCTGATGTTAATCGGGTCTTGATTCGCTTGACGCTGCTG | middle |
| CCGATTAACATCAACCCCCCCCCTGATGTTAATCGGGTCTTGATTCGCTTGACGCTGCTG | high |
| CCGATTAACATCAGGGAGATACCTGATGTTAATCGGGTCTTGATTCGCTTGACGCTGCTG | low |
| CCGATTAACATCAGGCGATTCCCTGATGTTAATCGGGTCTTGATTCGCTTGACGCTGCTG | low |
| CCGATTAACATCAATCCACCCCCTGATGTTAATCGGGTCTTGATTCGCTTGACGCTGCTG | middle |
| CCGATTAACATCAGGGGGGAATATGATGTTAATCGGGTCTTGATTCGCTTGACGCTGCTG | high |
| CCGATTAACATCAGGAAGTTCCCTGATGTTAATCGGGTCTTGATTCGCTTGACGCTGCTG | low |
| CCGATTAACATCACGGGGAACTCTGATGTTAATCGGGTCTTGATTCGCTTGACGCTGCTG | high |

Source listed as paper PMC5700166.
